Target: AAK1 (full length human) in transfected HEK293F cells (Homo sapiens, UniProt Q2M2I8)
Construct: expressed in transfected cells; host or cells: HEK293F
Experiment: HEK281 cell-based assay (phospho-mu2 Western blot)
Conditions: aryl ethers, class symbols; read-out: CBA IC50
Procedure: HEK293F cells were cultured in media containing DMEM (Gibco, cat. #11965), 10% FBS (SAFC Biosciences, cat. #12103C), 1×GPS (glutamine, penicillin and streptomycin). On day one, cells were plated on a 10 cm dish so that they are ˜80% confluent at time of transfection. Roughly 12 million cells were in a 10 cm dish at time of transfection. On day two, each dish was transfected with 48 ug DNA and 144 ul Lipofectamine 2000 (Invitrogen, cat.#11668-019). […]
recorded.metric: IC50

Prompt: Could you please provide reported IC50 for "CC(C)C[C@H](N)COc1ccc2c(c1)OCc1cnc(N)cc1-2" ? Thanks!
Completion: 1 to 10 nM

---

Molecular target: AAK1 (full-length human protein) (Homo sapiens)
Construct: NP_055726.2
Assay: P81 filter plate assay
Assay type: biochemical
Settings: pyrazolo[1,5-a]pyrimidine-based inhibitors
pIC50: −log10 of the molar value.
recorded.metric: pIC50

>>> readout_value("CC(C)OC(=O)N1CCN(c2ccn3ncc(-c4ccccn4)c3n2)CC1")
"≥ 8.00"
>>> readout_value("CC(C)(C)CCN1C(=O)CC[C@H]1CNc1ccn2ncc(-c3ccccc3)c2n1")
"≥ 8.00"
>>> readout_value("CCNC(=O)c1cnn2ccc(N3CCN(C(=O)OC(C)C)CC3)nc12")
"≥ 7.00"
>>> readout_value("CCOC(=O)N1CCN(c2ccn3ncc(-c4cccnc4OCC)c3n2)CC1")
"≥ 8.00"
>>> readout_value("COc1ccccc1-c1cnn2ccc(NC[C@@H]3CCCN3C(=O)CC(F)(F)F)nc12")
"≥ 8.00"
>>> readout_value("COc1ccc(-c2cnn3ccc(NC[C@@H]4CCCN4C(=O)OC(C)(C)C)nc23)cc1")
"≥ 8.00"

Prompt: Could you please provide reported pIC50 for "COc1ccc(-c2cnn3ccc(N4CCN(C(=O)OC(C)C)CC4)nc23)nc1" ? Thanks!
Completion: ≥ 8.00

Prompt: Could you please provide reported pIC50 for "COc1ncccc1-c1cnn2ccc(N3CCN(C(=O)NC(C)C)CC3)nc12" ? Thanks!
Completion: ≥ 8.00

Prompt: Could you please provide reported pIC50 for "COc1ncccc1-c1cnn2ccc(N3CC(N(C)C(=O)OC(C)(C)C)C3)nc12" ? Thanks!
Completion: ≥ 6.00

---

Here the recorded pIC50 is given for each entry.
Molecular target: GST-Xa-hAAK1 (Homo sapiens)
Construct: made in house
Sequence (Q2M2I8 whole entry): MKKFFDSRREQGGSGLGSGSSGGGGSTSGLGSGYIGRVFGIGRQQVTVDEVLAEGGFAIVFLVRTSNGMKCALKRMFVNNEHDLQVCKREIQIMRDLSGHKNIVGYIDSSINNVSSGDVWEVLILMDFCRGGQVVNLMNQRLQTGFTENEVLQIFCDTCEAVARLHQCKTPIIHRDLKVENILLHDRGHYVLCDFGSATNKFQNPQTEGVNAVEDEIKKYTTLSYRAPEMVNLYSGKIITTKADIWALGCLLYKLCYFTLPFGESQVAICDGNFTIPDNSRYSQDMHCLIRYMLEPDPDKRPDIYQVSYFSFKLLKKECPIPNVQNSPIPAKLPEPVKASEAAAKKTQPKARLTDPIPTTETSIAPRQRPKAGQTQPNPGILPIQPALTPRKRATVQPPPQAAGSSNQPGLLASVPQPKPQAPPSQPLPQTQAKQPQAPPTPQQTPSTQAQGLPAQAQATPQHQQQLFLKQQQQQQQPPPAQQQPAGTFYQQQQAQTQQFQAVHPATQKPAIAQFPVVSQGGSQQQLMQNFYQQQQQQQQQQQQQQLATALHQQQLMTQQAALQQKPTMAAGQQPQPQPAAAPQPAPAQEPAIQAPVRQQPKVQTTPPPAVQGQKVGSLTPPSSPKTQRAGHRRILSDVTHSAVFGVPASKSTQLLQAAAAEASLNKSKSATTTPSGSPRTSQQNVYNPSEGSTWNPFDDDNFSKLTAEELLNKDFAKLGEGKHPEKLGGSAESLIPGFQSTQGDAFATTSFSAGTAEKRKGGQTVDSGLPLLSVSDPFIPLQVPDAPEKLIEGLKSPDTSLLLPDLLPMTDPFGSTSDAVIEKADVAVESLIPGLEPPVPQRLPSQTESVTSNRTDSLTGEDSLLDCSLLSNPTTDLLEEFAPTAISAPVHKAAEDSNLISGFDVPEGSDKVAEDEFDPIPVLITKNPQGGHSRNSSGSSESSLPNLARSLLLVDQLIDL
Experiment: Caliper assay
Assay type: biochemical
Settings: aryl ethers, numeric values
Give only the number. pIC50 is defined as minus log10 of concentration in molar units.

Previously resolved entries follow.
>>> readout_value("CCC1Oc2cc(OC[C@@H](N)CC(C)C)ccc2-c2ccncc21 (stereo partly shown)")
7.92
>>> readout_value("CC(C)C[C@H](N)COc1cc2c(cc1Br)-c1ccncc1CO2")
9.07

Prompt: Could you please provide reported pIC50 for "N[C@@H](COc1ccc2c(c1)OCc1cnccc1-2)Cc1ccccc1" ? Thanks!
Completion: 6.53

Prompt: Could you please provide reported pIC50 for CC(C)C[C@H](N)COc1ccc2c(c1)OC(C)c1cnccc1-2 (stereo partly shown) [drawing 30] ? Thanks!
Completion: 8.31

---

Here the recorded IC50 is given for each entry.
Biological target: AAK1 (full length human) in transfected HEK293F cells (Homo sapiens)
Construct: expressed in transfected cells; host or cells: HEK293F
Test: HEK281 cell-based assay (phospho-mu2 Western blot)
Conditions: aryl ethers, numeric values; read-out: CBA IC50
Please give a number only; it is taken to be in nM.

Previously resolved entries follow.
>>> readout_value("CC(C)C[C@H](N)COc1ccc2c(c1)OC(C)c1cnccc1-2 (stereo partly drawn) [drawing 31]")
25
>>> readout_value("CC(C)C[C@H](N)COc1ccc2c(c1)OC(C1CC1)c1cnccc1-2 (stereo partly drawn) [drawing 37]")
18
>>> readout_value("CCc1cc2c(cc1OC[C@@H](N)CC(C)C)OC(CC)c1cnccc1-2 (stereo partly drawn)")
18
>>> readout_value("CC(C)C[C@H](N)COc1cc2c(cc1Br)-c1ccncc1CO2")
2.5

Below: the item to evaluate.
Prompt: Could you please provide reported IC50 for CCC1Oc2cc(OC[C@@H](N)CC(C)C)ccc2-c2ccncc21 (stereo partly drawn) ? Thanks!
Completion: 56

---

Target: AAK1 (full length human) in transfected HEK293F cells (Homo sapiens)
Construct: expressed in transfected cells; host or cells: HEK293F
Test: HEK281 cell-based assay (phospho-mu2 Western blot)
Conditions: HEK281 cell-based assay; pyrazolo[1,5-a]pyrimidine-based inhibitors; read-out: CBA IC50
pIC50: −log10 of the molar value.
Here the recorded pIC50 is given for each entry.

>>> readout_value("CN(CCNc1ccn2ncc(-c3ccc(C(N)=O)cc3)c2n1)C(=O)OC(C)(C)C")
"≥ 8.00"
>>> readout_value("CN(C(=O)CC(F)(F)F)[C@H]1CCN(c2ccn3ncc(-c4ccccn4)c3n2)C1")
"≥ 8.00"

Prompt: Could you please provide reported pIC50 for "COCCOC(=O)N1CCN(c2ccn3ncc(-c4cccnc4OC)c3n2)CC1" ? Thanks!
Completion: ≥ 7.00

Prompt: Could you please provide reported pIC50 for "COc1ncccc1-c1cnn2ccc(NCCCC(F)(F)F)nc12" ? Thanks!
Completion: ≥ 7.00

Prompt: Could you please provide reported pIC50 for "Cc1cc(-c2cnn3ccc(N4CC[C@H](N(C)C(=O)OC(C)(C)C)C4)nc23)ccn1" ? Thanks!
Completion: ≥ 7.00

Prompt: Could you please provide reported pIC50 for "CC(C)OC(=O)N(C)CCNc1ccn2ncc(-c3ccc(C(N)=O)cc3)c2n1" ? Thanks!
Completion: ≥ 8.00

Prompt: Could you please provide reported pIC50 for "CCOC(=O)N1CCN(c2ccn3ncc(-c4cccnc4OC)c3n2)CC1" ? Thanks!
Completion: ≥ 7.00

Prompt: Could you please provide reported pIC50 for "CC(C)OC(=O)N(C)CCNc1ccn2ncc(-c3ccc(CN)cc3)c2n1" ? Thanks!
Completion: ≥ 7.00

Prompt: Could you please provide reported pIC50 for "COc1cnccc1-c1cnn2ccc(NCCc3ccccc3OC(F)(F)F)nc12" ? Thanks!
Completion: ≥ 8.00

Prompt: Could you please provide reported pIC50 for "CC(C)Oc1ccccc1-c1cnn2ccc(NC[C@@H]3CCCN3C(=O)OC(C)(C)C)nc12" ? Thanks!
Completion: ≥ 8.00

Prompt: Could you please provide reported pIC50 for "COCc1ccccc1-c1cnn2ccc(NC[C@@H]3CCCN3C(=O)OC(C)(C)C)nc12" ? Thanks!
Completion: ≥ 7.00

Prompt: Could you please provide reported pIC50 for "CC(C)(C)CCNc1ccn2ncc(-c3ccc(C(=O)NCCN)cc3)c2n1" ? Thanks!
Completion: ≥ 6.00

Prompt: Could you please provide reported pIC50 for "COc1ncccc1-c1cnn2ccc(N3CCN(C(=O)N(C)C(C)C)CC3)nc12" ? Thanks!
Completion: ≥ 7.00

Prompt: Could you please provide reported pIC50 for "COCCNc1ccn2ncc(-c3ccccc3)c2n1" ? Thanks!
Completion: ≥ 6.00

Prompt: Could you please provide reported pIC50 for "COc1cnccc1-c1cnn2ccc(NC[C@@H]3CCC(=O)N3CCC(C)(C)C)nc12" ? Thanks!
Completion: ≥ 7.00

Prompt: Could you please provide reported pIC50 for "Brc1cnn2ccc(NCCCOC3CCCC3)nc12" ? Thanks!
Completion: ≥ 6.00

Prompt: Could you please provide reported pIC50 for "CNC(=O)c1ccc(-c2cnn3ccc(NCCN(C)C(=O)OC(C)C)nc23)cc1" ? Thanks!
Completion: ≥ 8.00

Prompt: Could you please provide reported pIC50 for "CC(C)(C)OCCNc1ccn2ncc(-c3ccc(CN)cc3)c2n1" ? Thanks!
Completion: ≥ 7.00

Prompt: Could you please provide reported pIC50 for "COc1ccc(-c2cnn3ccc(N4CCN(C(=O)OC(C)C)CC4)nc23)cn1" ? Thanks!
Completion: ≥ 6.00

Prompt: Could you please provide reported pIC50 for "COc1ncccc1-c1cnn2ccc(N3CCN(C(=O)OCCF)CC3)nc12" ? Thanks!
Completion: ≥ 8.00

Prompt: Could you please provide reported pIC50 for "COc1ccc(-c2cnn3ccc(NC[C@@H]4CCCN4C(=O)OC(C)(C)C)nc23)cc1" ? Thanks!
Completion: ≥ 8.00

Prompt: Could you please provide reported pIC50 for "CCOC(=O)N(C)CCNc1ccn2ncc(-c3ccc(C(=O)NC)cc3)c2n1" ? Thanks!
Completion: ≥ 7.00

Prompt: Could you please provide reported pIC50 for "CC(C)OC(=O)N1CCN(c2ccn3ncc(-c4cccnc4Cl)c3n2)CC1" ? Thanks!
Completion: ≥ 6.00

---

Molecular target: AAK1 (full-length human protein) (Homo sapiens, UniProt Q2M2I8)
Construct: NP_055726.2
Sequence (Q2M2I8 1-863 isoform Q2M2I8-2): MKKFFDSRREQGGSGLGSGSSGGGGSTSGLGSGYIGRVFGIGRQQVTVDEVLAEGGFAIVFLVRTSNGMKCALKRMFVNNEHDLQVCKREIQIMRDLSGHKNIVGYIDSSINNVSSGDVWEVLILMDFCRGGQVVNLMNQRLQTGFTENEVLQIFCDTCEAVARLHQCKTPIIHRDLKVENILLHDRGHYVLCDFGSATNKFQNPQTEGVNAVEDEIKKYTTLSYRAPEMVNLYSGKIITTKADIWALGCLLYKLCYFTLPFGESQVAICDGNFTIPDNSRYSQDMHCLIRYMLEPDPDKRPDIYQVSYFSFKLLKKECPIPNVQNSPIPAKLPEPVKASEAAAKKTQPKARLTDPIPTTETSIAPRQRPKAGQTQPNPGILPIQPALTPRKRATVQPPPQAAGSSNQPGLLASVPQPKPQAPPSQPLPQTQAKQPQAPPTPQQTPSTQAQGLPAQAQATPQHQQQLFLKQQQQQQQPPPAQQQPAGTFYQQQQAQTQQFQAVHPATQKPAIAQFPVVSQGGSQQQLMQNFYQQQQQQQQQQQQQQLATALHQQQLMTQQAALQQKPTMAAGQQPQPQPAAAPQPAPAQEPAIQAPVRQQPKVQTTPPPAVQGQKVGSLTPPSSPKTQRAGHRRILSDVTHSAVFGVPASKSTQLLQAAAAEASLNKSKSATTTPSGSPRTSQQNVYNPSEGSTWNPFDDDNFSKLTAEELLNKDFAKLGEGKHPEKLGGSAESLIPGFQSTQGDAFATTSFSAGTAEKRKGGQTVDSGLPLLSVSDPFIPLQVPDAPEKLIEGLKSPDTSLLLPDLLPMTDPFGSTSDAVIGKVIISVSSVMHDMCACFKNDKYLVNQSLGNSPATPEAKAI
Experiment: P81 filter plate assay
Assay type: biochemical
Conditions: pyrazolo[1,5-a]pyrimidine-based inhibitors
pIC50: −log10 of the molar value.
recorded.metric: pIC50

>>> readout_value("CCOc1ccccc1-c1cnn2ccc(NC[C@@H]3CCC(=O)N3CCC(C)(C)C)nc12")
"≥ 8.00"
>>> readout_value("CCOC(=O)c1cnn2ccc(N3CCN(C(=O)OC(C)C)CC3)nc12")
"≥ 7.00"
>>> readout_value("CN(C(=O)CC(F)(F)F)[C@H]1CCN(c2ccn3ncc(Br)c3n2)C1")
"≥ 7.00"
>>> readout_value("CCCC(=O)N(C)[C@H]1CCN(c2ccn3ncc(-c4ccccn4)c3n2)C1")
"≥ 6.00"
>>> readout_value("CC(C)OC(=O)N1CCN(c2ccn3ncc(-c4cncnc4)c3n2)CC1")
"≥ 7.00"
>>> readout_value("COCCOC(=O)N1CCN(c2ccn3ncc(-c4ccccc4OC)c3n2)CC1")
"≥ 8.00"

Below: the item to evaluate.
Prompt: Could you please provide reported pIC50 for "COc1ncccc1-c1cnn2ccc(N3CCN(C(=O)NC(C)(C)C)CC3)nc12" ? Thanks!
Completion: ≥ 8.00
